biological target: T1, purified extracellular domain of PSMA (prostate-specific membrane antigen), residues 44-750 (UniProt Q04609 44-750); test: SPR (ProteOn XPR36), NB immobilised, soluble PSMA as analyte, 1:1 Langmuir, 25 C
T1 construct: range 44-750; The limits 44-750 are stated for the immunogen; Docking used PDB 1Z8L; also called soluble PSMA; monomeric PSMA
T1 sequence (Q04609 44-750 limits assumed): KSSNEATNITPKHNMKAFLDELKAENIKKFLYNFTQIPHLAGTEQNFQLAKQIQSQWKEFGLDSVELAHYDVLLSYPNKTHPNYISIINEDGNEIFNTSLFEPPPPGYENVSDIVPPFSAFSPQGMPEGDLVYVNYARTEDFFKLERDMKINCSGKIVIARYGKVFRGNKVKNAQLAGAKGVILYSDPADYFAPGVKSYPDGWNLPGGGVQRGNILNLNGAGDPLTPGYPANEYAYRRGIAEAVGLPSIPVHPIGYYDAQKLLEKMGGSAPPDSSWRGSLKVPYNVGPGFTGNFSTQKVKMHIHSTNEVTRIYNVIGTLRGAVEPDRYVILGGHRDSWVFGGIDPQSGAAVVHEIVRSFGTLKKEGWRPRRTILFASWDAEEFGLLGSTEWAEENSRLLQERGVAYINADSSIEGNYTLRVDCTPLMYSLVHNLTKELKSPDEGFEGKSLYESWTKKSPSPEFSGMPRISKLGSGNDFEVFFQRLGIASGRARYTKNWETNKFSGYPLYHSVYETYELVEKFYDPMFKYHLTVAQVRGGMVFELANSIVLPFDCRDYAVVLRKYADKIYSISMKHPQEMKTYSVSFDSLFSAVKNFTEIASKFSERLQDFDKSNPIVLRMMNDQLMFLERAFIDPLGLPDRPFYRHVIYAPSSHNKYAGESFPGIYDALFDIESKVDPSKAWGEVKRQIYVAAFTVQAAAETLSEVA

binder: NB13 (VHH, also called nanobody 13; not shown: His tag (NBs purified on Ni-NTA and detected with anti-His)) VHH: QVQLQESGGGSVQTGGSLRLSCAASGYTASFSWIGYFRQAPGKEREGVAVINVGVGSTYYADSVKGRFTISRDNTENTISLEMNSLKPEDTGLYYCAGSLRWSRPPNPISEDAYNYWGQGTQVTVSS
koff: 2.2e-05 s⁻¹

binder: NB8 (VHH, also called nanobody 8; PDB 6XXO; not shown: His tag (NBs purified on Ni-NTA and detected with anti-His)) VHH: QVQLQESGGGSVQAGGSLRLSCARSGWPYSTYSMNWFRQAPGKEREAVAGISSTMSGIIFAESKAGQFTISQDNAKNTVYLQMNNLKPEDTAIYYCAARRDYSLSSSSDDFDYWGQGTQVTVSS
koff: 0.00012 s⁻¹

binder: NB7 (VHH, also called nanobody 7; anti-PSMA NB7; not shown: His tag (NBs purified on Ni-NTA and detected with anti-His)) VHH: QVQLQESGGGSVQAGGSLRLSCTAPGYTDSNYYMSWFRQAPGKEREWVAGVNTGRGSTSYADSVKGRFTISQDNAKNTMFLQMNSLKPEDTAIYYCAVAACHFCDSLPKTQDEYILWGQGTQVTVSS
koff: 3.9e-05 s⁻¹

binder: NB37 (VHH, also called nanobody 37; PDB 6XXP; not shown: His tag (NBs purified on Ni-NTA and detected with anti-His)) VHH: QVQLQESGGGSVEAGGSLRLSCARSGWPYSTYSMNWFRQAPGKEREAVAGISSTMSGIIFAESKAGQFTISQDNAKNTVYLQMNNLKPEDTAIYYCAARRDYSLSSSSDDFDYWGQGTQVTVSS
koff: 7.5e-05 s⁻¹
